All values here come from ChEMBL document CHEMBL3585305.

experimental_system: Cholinesterase (Equus caballus, UniProt P81908)
Sequence (P81908 whole entry): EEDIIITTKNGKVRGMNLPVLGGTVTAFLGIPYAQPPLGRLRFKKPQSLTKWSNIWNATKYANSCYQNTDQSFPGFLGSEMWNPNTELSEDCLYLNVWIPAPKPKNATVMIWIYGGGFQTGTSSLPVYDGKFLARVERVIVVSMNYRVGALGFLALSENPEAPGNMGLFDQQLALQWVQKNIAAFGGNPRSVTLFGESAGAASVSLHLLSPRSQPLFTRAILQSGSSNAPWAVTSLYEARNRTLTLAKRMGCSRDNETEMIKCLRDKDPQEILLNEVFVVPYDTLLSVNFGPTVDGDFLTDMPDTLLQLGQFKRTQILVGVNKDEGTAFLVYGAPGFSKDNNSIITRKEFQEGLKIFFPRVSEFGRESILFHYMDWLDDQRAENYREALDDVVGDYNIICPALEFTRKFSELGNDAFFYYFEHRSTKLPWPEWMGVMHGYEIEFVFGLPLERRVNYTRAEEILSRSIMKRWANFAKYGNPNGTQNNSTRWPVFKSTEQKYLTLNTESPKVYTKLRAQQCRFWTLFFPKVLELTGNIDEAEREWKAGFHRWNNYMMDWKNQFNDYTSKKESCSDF
assay: Inhibition of equine serum BuChE by spectrophotometric Ellman's method
So basically, if IC50 comes in under 4 µM it's Met, and if it's 4 µM or more it's Not met.

>>> label_class("Cc1c(C)c2ccc(OCCCCN(C)Cc3ccccc3)cc2oc1=O")
"Met"
>>> label_class("CN(Cc1cccc(C#N)c1)Cc1cccc(COc2ccc3ccc(=O)oc3c2)c1")
"Met"
>>> label_class("Cc1c(C)c2ccc(OCCCCCCN(C)Cc3ccccc3)cc2oc1=O")
"Met"
>>> label_class("Cc1c(C)c2ccc(OCCCCCN(C)Cc3ccc(C#N)cc3)cc2oc1=O")
"Not met"

---

Catalogue of pIC50 values
experimental_system: Cholinesterase (Equus caballus)
assay: Inhibition of equine serum BuChE by spectrophotometric Ellman's method
pIC50: −log10 of the molar value.
measured_property: pIC50

>>> result_value("CN(CCc1ccc(COc2ccc3ccc(=O)oc3c2)cc1)Cc1ccccc1")
6.28
>>> result_value("Cc1c(C)c2ccc(OCCCCCNCc3ccccc3)cc2oc1=O")
5.74
>>> result_value("CN(Cc1ccccc1)Cc1cccc(COc2ccc3ccc(=O)oc3c2)c1")
6.00
>>> result_value("O=c1cc(CO)c2ccc(OCc3ccc(CNCc4ccccc4)cc3)cc2o1")
6.24
>>> result_value("CN(Cc1ccccc1)Cc1ccc(COc2ccc3cc(C#N)c(=O)oc3c2)cc1")
5.26

---

Catalogue of inhibition at 10 µM values
experimental_system: UniProt P21396
Sequence (P21396 whole entry): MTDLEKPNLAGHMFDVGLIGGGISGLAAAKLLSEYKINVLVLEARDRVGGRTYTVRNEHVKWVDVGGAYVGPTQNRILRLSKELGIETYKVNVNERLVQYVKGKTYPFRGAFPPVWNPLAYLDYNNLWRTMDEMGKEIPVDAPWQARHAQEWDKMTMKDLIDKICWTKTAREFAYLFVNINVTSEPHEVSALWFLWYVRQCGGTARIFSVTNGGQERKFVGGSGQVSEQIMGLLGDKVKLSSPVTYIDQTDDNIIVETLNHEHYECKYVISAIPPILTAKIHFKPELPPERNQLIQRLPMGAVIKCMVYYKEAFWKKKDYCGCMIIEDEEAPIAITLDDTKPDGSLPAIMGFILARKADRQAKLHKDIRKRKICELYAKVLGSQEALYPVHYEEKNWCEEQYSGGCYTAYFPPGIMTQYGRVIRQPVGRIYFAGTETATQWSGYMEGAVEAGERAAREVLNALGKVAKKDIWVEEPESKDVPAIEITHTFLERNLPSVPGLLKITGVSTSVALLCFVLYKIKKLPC
assay: Inhibition of rat brain MAO-A using kynuramine substrate […] at 10 uM by spectrophotometric assay
measured_property: inhibition at 10 µM (%)

>>> result_value("CN(Cc1cccc(Cl)c1)Cc1cccc(COc2ccc3ccc(=O)oc3c2)c1")
17
>>> result_value("Cc1c(C)c2ccc(OCCCCCN(C)Cc3ccc(C#N)cc3)cc2oc1=O")
48
>>> result_value("Cc1c(C)c2ccc(OCc3ccc(CN(C)Cc4ccccc4)cc3)cc2oc1=O")
0
>>> result_value("CN(Cc1ccc(C#N)cc1)Cc1ccc(COc2ccc3cc(C#N)c(=O)oc3c2)cc1")
0
>>> result_value("CN(Cc1ccccc1)Cc1ccc(COc2ccc3cc(C#N)c(=O)oc3c2)cc1")
0

---

experimental_system: Amine oxidase [flavin-containing] A (Homo sapiens, UniProt P21397)
assay: Inhibition of human recombinant MAO-A using kynuramine substrate by spectrophotometric assay
So basically, if IC50 comes in under 0.5 µM it's satisfied, and if it's 0.5 µM or more it's not satisfied.

>>> label_class("Cc1c(C)c2ccc(OCc3ccc(CN(C)Cc4ccccc4)cc3)cc2oc1=O")
"not satisfied"
>>> label_class("Cc1c(C)c2ccc(OCCCCN(C)Cc3ccccc3)cc2oc1=O")
"satisfied"
>>> label_class("CCN(CCCCCCOc1ccc2c(C)c(C)c(=O)oc2c1)Cc1ccccc1")
"satisfied"
>>> label_class("Cc1c(C)c2ccc(OCCCCCCN(C)Cc3ccccc3)cc2oc1=O")
"satisfied"
>>> label_class("CN(Cc1ccc(C#N)cc1)Cc1ccc(COc2ccc3c(CO)cc(=O)oc3c2)cc1")
"not satisfied"
>>> label_class("Cc1c(C)c2ccc(OCCCCCNCc3ccccc3)cc2oc1=O")
"satisfied"
>>> label_class("CN(Cc1ccc(COc2ccc3c(CO)cc(=O)oc3c2)cc1)Cc1cccc(Cl)c1")
"not satisfied"

---

Catalogue of inhibition at 10 µM values
experimental_system: UniProt P19643
Sequence (P19643 whole entry): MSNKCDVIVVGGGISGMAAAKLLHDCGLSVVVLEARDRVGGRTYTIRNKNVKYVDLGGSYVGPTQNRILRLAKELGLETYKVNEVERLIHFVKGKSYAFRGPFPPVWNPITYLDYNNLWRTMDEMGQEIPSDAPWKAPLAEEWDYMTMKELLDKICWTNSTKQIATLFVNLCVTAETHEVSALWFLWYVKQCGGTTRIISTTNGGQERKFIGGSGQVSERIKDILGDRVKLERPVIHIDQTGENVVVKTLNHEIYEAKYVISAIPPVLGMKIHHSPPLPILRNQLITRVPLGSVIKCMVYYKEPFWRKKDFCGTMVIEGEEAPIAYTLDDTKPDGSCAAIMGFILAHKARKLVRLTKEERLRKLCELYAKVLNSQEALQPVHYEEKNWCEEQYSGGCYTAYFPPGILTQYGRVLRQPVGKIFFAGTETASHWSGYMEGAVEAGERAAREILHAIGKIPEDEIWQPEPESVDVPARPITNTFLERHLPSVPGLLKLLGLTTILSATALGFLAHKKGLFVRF
assay: Inhibition of rat brain MAO-B using kynuramine substrate […] at 10 uM by spectrophotometric assay
measured_property: inhibition at 10 µM (%)

>>> result_value("CN(Cc1ccccc1)Cc1ccc(COc2ccc3ccc(=O)[nH]c3c2)cc1")
29
>>> result_value("CN(Cc1ccccc1)Cc1ccc(COc2ccc3cc(C#N)c(=O)oc3c2)cc1")
41
>>> result_value("CCN(CC)Cc1cccc(COc2ccc3ccc(=O)oc3c2)c1")
35
>>> result_value("CCN(CC)Cc1ccc(COc2ccc3ccc(=O)oc3c2)cc1")
44

---

Catalogue of inhibition at 10 µM values
experimental_system: Amine oxidase [flavin-containing] A (Rattus norvegicus, UniProt P21396)
assay: Inhibition of rat brain MAO-A using kynuramine substrate […] at 10 uM by spectrophotometric assay
measured_property: inhibition at 10 µM (%)

>>> result_value("CN(Cc1ccc(C#N)cc1)Cc1ccc(COc2ccc3c(CO)cc(=O)oc3c2)cc1")
0
>>> result_value("COc1cccc(CN(C)Cc2cccc(COc3ccc4ccc(=O)oc4c3)c2)c1")
14
>>> result_value("Cc1cc(=O)oc2cc(OCc3ccc(CN(C)Cc4cccc(Cl)c4)cc3)ccc12")
0

---

experimental_system: Amine oxidase [flavin-containing] A (Homo sapiens)
Sequence (P21397 whole entry): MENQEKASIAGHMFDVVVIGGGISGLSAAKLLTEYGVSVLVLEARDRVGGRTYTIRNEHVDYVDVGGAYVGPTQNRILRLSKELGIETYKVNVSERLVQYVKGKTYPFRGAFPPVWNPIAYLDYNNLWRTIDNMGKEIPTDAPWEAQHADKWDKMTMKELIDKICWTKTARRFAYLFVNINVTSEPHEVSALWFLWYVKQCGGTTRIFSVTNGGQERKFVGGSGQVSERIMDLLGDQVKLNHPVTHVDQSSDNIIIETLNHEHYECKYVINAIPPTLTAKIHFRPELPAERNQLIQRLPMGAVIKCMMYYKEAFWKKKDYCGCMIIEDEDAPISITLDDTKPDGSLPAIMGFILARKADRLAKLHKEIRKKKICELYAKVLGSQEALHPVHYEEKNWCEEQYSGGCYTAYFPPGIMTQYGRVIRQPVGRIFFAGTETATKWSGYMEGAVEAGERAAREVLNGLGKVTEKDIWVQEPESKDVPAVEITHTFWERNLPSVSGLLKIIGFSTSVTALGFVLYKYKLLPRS
assay: Inhibition of human recombinant MAO-A using kynuramine substrate at 10 uM by spectrophotometric assay
Catalogue of inhibition at 10 µM values
measured_property: inhibition at 10 µM (%)

>>> result_value("CN(Cc1ccc(C#N)cc1)Cc1ccc(COc2ccc3ccc(=O)oc3c2)cc1")
0
>>> result_value("COc1cc2c(cc1OC)C(=O)C(CC1CCN(Cc3ccccc3)CC1)C2 (stereo not given)")
0
>>> result_value("Cc1cc2ccc(OCc3ccc(CN(C)Cc4ccc(C#N)cc4)cc3)cc2oc1=O")
11
>>> result_value("Cc1c(C)c2ccc(OCCCN(C)Cc3ccccc3)cc2oc1=O")
17
>>> result_value("Cc1cc(=O)oc2cc(OCc3ccc(CN(C)Cc4ccc(C#N)cc4)cc3)ccc12")
39

---

experimental_system: Amine oxidase [flavin-containing] A (Rattus norvegicus, UniProt P21396)
assay: Inhibition of rat brain MAO-A using kynuramine substrate […] at 10 uM by spectrophotometric assay
measured_property: inhibition at 10 µM (%)

>>> result_value("Cc1cc(=O)oc2cc(OCc3ccc(CN(C)Cc4ccc(C#N)cc4)cc3)ccc12")
10
>>> result_value("O=c1cc(CO)c2ccc(OCc3ccc(CNCc4ccccc4)cc3)cc2o1")
19
>>> result_value("CN(Cc1ccc(COc2ccc3ccc(=O)oc3c2)cc1)Cc1cccc(Cl)c1")
12
>>> result_value("Cc1cc2ccc(OCc3ccc(CN(C)Cc4ccccc4)cc3)cc2oc1=O")
0
>>> result_value("CN(Cc1cccc(C#N)c1)Cc1cccc(COc2ccc3ccc(=O)oc3c2)c1")
2
>>> result_value("CN(Cc1ccc(C#N)cc1)Cc1ccc(COc2ccc3ccc(=O)oc3c2)cc1")
6
>>> result_value("CN(C)Cc1ccc(COc2ccc3ccc(=O)oc3c2)cc1")
17
>>> result_value("CN(Cc1ccccc1)Cc1ccc(COc2ccc3c(CO)cc(=O)oc3c2)cc1.Cl")
0
>>> result_value("Cc1c(C)c2ccc(OCc3ccc(CN(C)Cc4cccc(Cl)c4)cc3)cc2oc1=O")
7
>>> result_value("Cc1cc2ccc(OCc3ccc(CN(C)Cc4cccc(Cl)c4)cc3)cc2oc1=O")
0
